- System Tested: recombinant active Casp6 (Casp6-WT) (Homo sapiens, UniProt P55212, INS179NQTEKLDTNITEVD)
- Construct: generating mainly large subunit with a linker (LS-L), small subunit (SS), and a minor amount of large subunit (LS); His (C); made in house; host or cells: E. coli BL21(DE3)pLysS
- Sequence (P55212 24-193 limits assumed): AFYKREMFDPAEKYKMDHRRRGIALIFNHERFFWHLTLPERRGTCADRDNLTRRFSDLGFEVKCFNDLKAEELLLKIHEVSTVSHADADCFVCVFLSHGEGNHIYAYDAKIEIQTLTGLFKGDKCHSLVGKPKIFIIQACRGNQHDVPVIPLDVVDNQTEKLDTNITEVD
- Sequence (P55212 194-293 limits assumed): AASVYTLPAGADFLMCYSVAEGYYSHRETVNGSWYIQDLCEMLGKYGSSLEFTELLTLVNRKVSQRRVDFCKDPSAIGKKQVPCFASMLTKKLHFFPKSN
- Experimental Details: Fluorescence-based Ac-VEID-AFC cleavage assay (Casp6 activity, IC50 determination)
- Format: biochemical
- Test Context: Casp6-WT, compared with Casp6-K284A; read-out: IC50 of C13 for Casp6-WT (Fig. 4f)
Quantity Measured: IC50 (µM)
Answer with a number only, understood to be in µM.

Q: For the compound COC(=O)c1cc(CNC(=O)C2Cc3ccccc3O2)cc(NC(=O)c2ccco2)c1 (stereo not shown) , what IC50 is on record?
Ans: 17.2

###

- System Tested: Casp6-K284A-LS-SS (Homo sapiens, UniProt P55212, K284A)
- Construct: obtained by co-expression and purification of LS and SS subunits of WT, L200A or K284A Casp6 from E. coli; His (C)
- Experimental Details: C13 dose-response and global-fit kinetics on Casp6-K284A-LS-SS
- Test Context: copurified LS and SS; read-out: IC50 of C13 for Casp6-K284A-LS-SS (Fig. 4g)
Quantity Measured: IC50 (µM)
Answer with a number only, understood to be in µM.

Q: Request - read-out IC50 | tested on Casp6-K284A-LS-SS (Homo sapiens, UniProt P55212, K284A) | molecule COC(=O)c1cc(CNC(=O)C2Cc3ccccc3O2)cc(NC(=O)c2ccco2)c1 (stereo not shown) [Compound C13]
Ans: 47.8
